assay: Cytotoxicity CC50 in Calu-3 lung epithelial cells; type: cell-based, human; conditions: human, Calu-3 cells, Log [inhibitor] -6.52; read-out: % of Viability, Average (n=2)
List of viability at 24 h, 0.3 µM values.
Outcome measure: viability at 24 h, 0.3 µM (%)

>>> print(df.to_string())
                                   compound  measured_number
0  CC(=O)N[C@@H](CCC(N)=O)C(=O)N[C@@H](Cc1ccccc1)C(=O)N[C@@H](CCCNC(=N)N)C(=O)c1nc2ccccc2s1              100
1  CS(=O)(=O)N[C@@H](CCC(N)=O)C(=O)N[C@@H](Cc1ccccc1)C(=O)N[C@@H](CCCNC(=N)N)C(=O)c1nc2ccccc2s1              111
2  N=C(N)NCCCCC(=O)NC(CCC(N)=O)C(=O)NC(Cc1ccccc1)C(=O)NC(CCCNC(=N)N)C(=O)c1nc2ccccc2s1 (stereo not shown)              106
3  N=C(N)NCCCCC(=O)N[C@@H](CCC(=O)O)C(=O)N[C@@H](Cc1ccccc1)C(=O)N[C@@H](CCCNC(=N)N)C(=O)c1nc2ccccc2s1              108

* * *

experiment: Cytotoxicity CC50 in Calu-3 lung epithelial cells; assay type: cell-based, human; details: human, Calu-3 cells, Log [inhibitor] -8.52; read-out: % of Viability, Average (n=2)
Documented viability at 24 h, 0.003 µM across a set of molecules

Molecule	viability at 24 h, 0.003 µM [%]
N=C(N)NCCCCC(=O)NC(CCC(N)=O)C(=O)NC(Cc1ccccc1)C(=O)NC(CCCNC(=N)N)C(=O)c1nc2ccccc2s1 (stereo not shown) [Compound N-0130, (H)RQFR-kbt]	104
N=C(N)NCCCCC(=O)N[C@@H](CCC(=O)O)C(=O)N[C@@H](Cc1ccccc1)C(=O)N[C@@H](CCCNC(=N)N)C(=O)c1nc2ccccc2s1 [Compound N-0438, (H)REFR-kbt]	104
CC(=O)N[C@@H](CCC(N)=O)C(=O)N[C@@H](Cc1ccccc1)C(=O)N[C@@H](CCCNC(=N)N)C(=O)c1nc2ccccc2s1 [Compound N-386]	102
CS(=O)(=O)N[C@@H](CCC(N)=O)C(=O)N[C@@H](Cc1ccccc1)C(=O)N[C@@H](CCCNC(=N)N)C(=O)c1nc2ccccc2s1 [Compound N-385]	117

* * *

experiment: Cytotoxicity CC50 in Calu-3 lung epithelial cells; assay type: cell-based, human; settings: human, Calu-3 cells, Log [inhibitor] -5.52; read-out: % of Viability, Average (n=2)
List of viability at 24 h, 3 µM values.

Compound	viability at 24 h, 3 µM
N=C(N)NCCCCC(=O)NC(CCC(N)=O)C(=O)NC(Cc1ccccc1)C(=O)NC(CCCNC(=N)N)C(=O)c1nc2ccccc2s1 (stereo not shown) [Compound N-0130, (H)RQFR-kbt]	100%
N=C(N)NCCCCC(=O)N[C@@H](CCC(=O)O)C(=O)N[C@@H](Cc1ccccc1)C(=O)N[C@@H](CCCNC(=N)N)C(=O)c1nc2ccccc2s1 [Compound N-0438, (H)REFR-kbt]	99%
CS(=O)(=O)N[C@@H](CCC(N)=O)C(=O)N[C@@H](Cc1ccccc1)C(=O)N[C@@H](CCCNC(=N)N)C(=O)c1nc2ccccc2s1 [Compound N-385]	110%
CC(=O)N[C@@H](CCC(N)=O)C(=O)N[C@@H](Cc1ccccc1)C(=O)N[C@@H](CCCNC(=N)N)C(=O)c1nc2ccccc2s1 [Compound N-386]	95%

* * *

target: mouse TMPRSS2 (Mus musculus); assay: cell-based; conditions: Vero E6 cells transfected with mTMPRSS2, 24 h; mean ± SD, n = 3; read-out: mouse TMPRSS2 (mTmprss2) activity IC50
Sequence (Q9JIQ8 whole entry): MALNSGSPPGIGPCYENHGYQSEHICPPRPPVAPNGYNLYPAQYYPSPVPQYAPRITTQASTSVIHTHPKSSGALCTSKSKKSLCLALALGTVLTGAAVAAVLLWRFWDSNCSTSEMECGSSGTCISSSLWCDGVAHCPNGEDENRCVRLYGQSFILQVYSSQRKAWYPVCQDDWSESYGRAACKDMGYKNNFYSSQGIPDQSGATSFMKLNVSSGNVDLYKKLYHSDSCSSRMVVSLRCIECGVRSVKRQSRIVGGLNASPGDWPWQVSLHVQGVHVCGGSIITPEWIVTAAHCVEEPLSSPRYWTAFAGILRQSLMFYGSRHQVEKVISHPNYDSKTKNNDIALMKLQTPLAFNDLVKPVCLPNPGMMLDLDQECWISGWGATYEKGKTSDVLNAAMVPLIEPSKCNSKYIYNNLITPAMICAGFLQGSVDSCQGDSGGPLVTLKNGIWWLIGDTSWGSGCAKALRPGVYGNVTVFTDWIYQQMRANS
Outcome measure: IC50 (nM)

                                   compound  measurement_units  measured_number
0  CS(=O)(=O)NC(CCC(N)=O)C(=O)NC(Cc1ccccc1)C(=O)NC(CCCNC(=N)N)C(=O)c1nc2ccccc2s1 (stereo not shown)                 nM             12.3

* * *

system: Calu-3 cells; assay: Cytotoxicity CC50 in Calu-3 lung epithelial cells; type: cell-based, human; details: Log [inhibitor] -4.00; single replicates
Outcome measure: % of Viability (%)

>>> df
                                   compound  outcome_measure  measured_number
0  CS(=O)(=O)N[C@@H](CCC(N)=O)C(=O)N[C@@H](Cc1ccccc1)C(=O)N[C@@H](CCCNC(=N)N)C(=O)c1nc2ccccc2s1   % of Viability               88
1  N=C(N)NCCCCC(=O)NC(CCC(N)=O)C(=O)NC(Cc1ccccc1)C(=O)NC(CCCNC(=N)N)C(=O)c1nc2ccccc2s1 (stereo not shown)   % of Viability               94
2  N=C(N)NCCCCC(=O)N[C@@H](CCC(=O)O)C(=O)N[C@@H](Cc1ccccc1)C(=O)N[C@@H](CCCNC(=N)N)C(=O)c1nc2ccccc2s1   % of Viability               91
3  CC(=O)N[C@@H](CCC(N)=O)C(=O)N[C@@H](Cc1ccccc1)C(=O)N[C@@H](CCCNC(=N)N)C(=O)c1nc2ccccc2s1   % of Viability               88

* * *

test: Cytotoxicity CC50 in Calu-3 lung epithelial cells; assay type: cell-based, human; conditions: human, Calu-3 cells, Log [inhibitor] -3.52; read-out: % of Viability, Average (n=2)
Outcome measure: viability at 24 h, 300 µM (%)

>>> df
                                   compound  measured_number
0  N=C(N)NCCCCC(=O)NC(CCC(N)=O)C(=O)NC(Cc1ccccc1)C(=O)NC(CCCNC(=N)N)C(=O)c1nc2ccccc2s1 (stereo not shown)             90.5
1  CS(=O)(=O)N[C@@H](CCC(N)=O)C(=O)N[C@@H](Cc1ccccc1)C(=O)N[C@@H](CCCNC(=N)N)C(=O)c1nc2ccccc2s1               92
2  N=C(N)NCCCCC(=O)N[C@@H](CCC(=O)O)C(=O)N[C@@H](Cc1ccccc1)C(=O)N[C@@H](CCCNC(=N)N)C(=O)c1nc2ccccc2s1             87.5
3  CC(=O)N[C@@H](CCC(N)=O)C(=O)N[C@@H](Cc1ccccc1)C(=O)N[C@@H](CCCNC(=N)N)C(=O)c1nc2ccccc2s1             82.5

* * *

viability at 24 h, 3 µM: recorded values
test: Cytotoxicity CC50 in Calu-3 lung epithelial cells; assay type: cell-based, human; conditions: human, Calu-3 cells, Log [inhibitor] -5.52; single replicates; read-out: % of Viability
Outcome measure: viability at 24 h, 3 µM (%)

>>> print(df.to_string())
                                   compound  measurement_units  measured_number
0  CS(=O)(=O)N[C@@H](CCC(N)=O)C(=O)N[C@@H](Cc1ccccc1)C(=O)N[C@@H](CCCNC(=N)N)C(=O)c1nc2ccccc2s1                  %              110
1  N=C(N)NCCCCC(=O)N[C@@H](CCC(=O)O)C(=O)N[C@@H](Cc1ccccc1)C(=O)N[C@@H](CCCNC(=N)N)C(=O)c1nc2ccccc2s1                  %              101
2  CC(=O)N[C@@H](CCC(N)=O)C(=O)N[C@@H](Cc1ccccc1)C(=O)N[C@@H](CCCNC(=N)N)C(=O)c1nc2ccccc2s1                  %               95
3  N=C(N)NCCCCC(=O)NC(CCC(N)=O)C(=O)NC(Cc1ccccc1)C(=O)NC(CCCNC(=N)N)C(=O)c1nc2ccccc2s1 (stereo not shown)                  %               99

* * *

assay: Cytotoxicity CC50 in Calu-3 lung epithelial cells; assay type: cell-based, human; conditions: human, Calu-3 cells, Log [inhibitor] -7.52; read-out: % of Viability, Average (n=2)
Listed here: items and their measured viability at 24 h, 0.03 µM.
Outcome measure: viability at 24 h, 0.03 µM (%)

                                   molecule             outcome_measure  measured_number
0  N=C(N)NCCCCC(=O)N[C@@H](CCC(=O)O)C(=O)N[C@@H](Cc1ccccc1)C(=O)N[C@@H](CCCNC(=N)N)C(=O)c1nc2ccccc2s1  viability at 24 h, 0.03 µM              103
1  N=C(N)NCCCCC(=O)NC(CCC(N)=O)C(=O)NC(Cc1ccccc1)C(=O)NC(CCCNC(=N)N)C(=O)c1nc2ccccc2s1 (stereo not shown)  viability at 24 h, 0.03 µM              101
2  CC(=O)N[C@@H](CCC(N)=O)C(=O)N[C@@H](Cc1ccccc1)C(=O)N[C@@H](CCCNC(=N)N)C(=O)c1nc2ccccc2s1  viability at 24 h, 0.03 µM              104
3  CS(=O)(=O)N[C@@H](CCC(N)=O)C(=O)N[C@@H](Cc1ccccc1)C(=O)N[C@@H](CCCNC(=N)N)C(=O)c1nc2ccccc2s1  viability at 24 h, 0.03 µM              110

src = paper PMC9095466
